# procedure.text: Hygroscopicity test, condition 2 (humidity chamber, weight change)
# Format: physicochemical
# stated.conditions: 30° C., 75% RH, 48 hr
measurement.label: Weight (g)

Here's what some known entries look like.
                                   molecule  measurement_label  observed_result
0  CNCC(=O)O.CNCC(=O)O.O=C(O)C(O)C(O)C(=O)O [N-MG/L-TA = 2/1]             Weight           0.1465
1  CNCC(=O)O.O=C(O)C(O)C(O)C(=O)O (racemic) [N-MG/DL-TA = 1/1]             Weight           0.1819
2  CNCC(=O)O [N-MG, N-methylglycine, reference compound]             Weight           0.2885

[A] CNCC(=O)O.CNCC(=O)O.O=C(O)C(O)C(O)C(=O)O (racemic) [N-MG/DL-TA = 2/1]
[B] CNCC(=O)O.O=C(O)C(O)C(O)C(=O)O [N-MG/L-TA = 1/1]
Pick one: A or B . Which one has the lower reported Weight? Provide the label of your selected option as the answer. B
(B: 0.1440 g, A: 0.2423 g)

---

# procedure.text: Hygroscopicity test, condition 3 (dynamic vapor sorption, 0 to 90 to 0% RH)
# Type: physicochemical
# stated.conditions: DVS, 25° C., RH 10%
measurement.label: Change In Mass (%)

[P] CNCC(=O)O.CNCC(=O)O.O=C(O)C(O)C(O)C(=O)O [N-MG/D-TA = 2/1]
[Q] CNCC(=O)O.CNCC(=O)O.O=C(O)C(O)C(O)C(=O)O [N-MG/L-TA = 2/1]
[R] CNCC(=O)O [N-MG, N-methylglycine, reference compound]
[S] CNCC(=O)O.CNCC(=O)O.O=C(O)C(O)C(O)C(=O)O (racemic) [N-MG/DL-TA = 2/1]
Place the item with the largest Change In Mass (%) first, then continue in falling order, using the list above. List the labels according to the requested ordering. S, P, Q, R
(S: 0.15%, P: 0.02%, Q: 0.01%, R: 0.0%)

---

# procedure.text: Hygroscopicity test, condition 2 (humidity chamber, weight change)
# Type: physicochemical
# stated.conditions: 30° C., 75% RH, 0 hr
measurement.label: Weight (g)

In [3]: df
Out[3]:
                                   molecule  measurement_label  observed_result
0  CNCC(=O)O.O=C(O)C(O)C(O)C(=O)O [N-MG/L-TA = 1/1]             Weight           0.1432
1  CNCC(=O)O.O=C(O)C(O)C(O)C(=O)O (racemic) [N-MG/DL-TA = 1/1]             Weight           0.1302
2  CNCC(=O)O.CNCC(=O)O.O=C(O)C(O)C(O)C(=O)O [N-MG/L-TA = 2/1]             Weight           0.1455
3  CNCC(=O)O [N-MG, N-methylglycine, reference compound]             Weight           0.1375
4  CNCC(=O)O.CNCC(=O)O.O=C(O)C(O)C(O)C(=O)O (racemic) [N-MG/DL-TA = 2/1]             Weight           0.1628
